The reported numbers originate from paper PMC9029538.

Please respond with reported AUC(0-inf) for every item in the list.
Assay: Plasma pharmacokinetics after IV CMS (Period 1)
Conditions: human, in vivo, iv, 3.3 mg/kg, AUC(0inf), Period 1, Cohort 3: IV 3.3 mg/kg colistin base activity q8h x 3 doses; plasma after final dose; mean (SD); SD
Where a SMILES comes first, the peptide text is derived from it. Bridges are numbered along the chain shown (N, C = ends). [ ]: non-standard residue; d: D form. The star is where a group is joined. Heptanoyl(6-Me) = CC(C)CCCCC(=O)*; X1 = CC[C@H](C)CCCCC(=O)*; Dab = NCC[C@H](N)C(=O)O
Give bare numbers, in ng·h/mL.

# input compound: CC[C@H](C)CCCCC(=O)N[C@@H](CCN)C(=O)N[C@H](C(=O)N[C@@H](CCN)C(=O)N[C@H]1CCNC(=O)[C@H]([C@@H](C)O)NC(=O)[C@H](CCN)NC(=O)[C@H](CCN)NC(=O)[C@H](CC(C)C)NC(=O)[C@@H](CC(C)C)NC(=O)[C@H](CCN)NC1=O)[C@@H](C)O [colistin A] (X1-[Dab]T[Dab][Dab][Dab][dL]L[Dab][Dab]T; lactam 4-C) ; wanted: its AUC(0-inf)
52400

Now, please, on to the next compound.
# input compound: CC(C)CCCCC(=O)N[C@@H](CCN)C(=O)N[C@H](C(=O)N[C@@H](CCN)C(=O)N[C@H]1CCNC(=O)[C@H]([C@@H](C)O)NC(=O)[C@H](CCN)NC(=O)[C@H](CCN)NC(=O)[C@H](CC(C)C)NC(=O)[C@@H](CC(C)C)NC(=O)[C@H](CCN)NC1=O)[C@@H](C)O [colistin B] ({Heptanoyl(6-Me)}-[Dab]T[Dab][Dab][Dab][dL]L[Dab][Dab]T; lactam 4-C) ; wanted: its AUC(0-inf)
7160

====

Experiment: Plasma pharmacokinetics after IV CMS (Period 1)
Details: human, in vivo, iv, 2.5 mg/kg, Vdss, Period 1, Cohort 2: IV 2.5 mg/kg colistin base activity q8h x 3 doses; plasma after final dose; mean (SD); SD
Where a SMILES comes first, the peptide text is derived from it. Bridges are numbered along the chain shown (N, C = ends). [ ]: non-standard residue; d: D form. The star is where a group is joined. Heptanoyl(6-Me) = CC(C)CCCCC(=O)*; X1 = CC[C@H](C)CCCCC(=O)*; Dab = NCC[C@H](N)C(=O)O
measure name: Vd (L)
Numbers only, in L.

# input molecule: CC(C)CCCCC(=O)N[C@@H](CCN)C(=O)N[C@H](C(=O)N[C@@H](CCN)C(=O)N[C@H]1CCNC(=O)[C@H]([C@@H](C)O)NC(=O)[C@H](CCN)NC(=O)[C@H](CCN)NC(=O)[C@H](CC(C)C)NC(=O)[C@@H](CC(C)C)NC(=O)[C@H](CCN)NC1=O)[C@@H](C)O [colistin B] ({Heptanoyl(6-Me)}-[Dab]T[Dab][Dab][Dab][dL]L[Dab][Dab]T; lactam 4-C) ; wanted: its Vd
18.1

Continuing:
# input molecule: CC[C@H](C)CCCCC(=O)N[C@@H](CCN)C(=O)N[C@H](C(=O)N[C@@H](CCN)C(=O)N[C@H]1CCNC(=O)[C@H]([C@@H](C)O)NC(=O)[C@H](CCN)NC(=O)[C@H](CCN)NC(=O)[C@H](CC(C)C)NC(=O)[C@@H](CC(C)C)NC(=O)[C@H](CCN)NC1=O)[C@@H](C)O [colistin A] (X1-[Dab]T[Dab][Dab][Dab][dL]L[Dab][Dab]T; lactam 4-C) ; wanted: its Vd
21.7

====

Please respond with reported clearance for every item in the list.
Test: Plasma pharmacokinetics after IV CMS (Period 1)
Conditions: human, in vivo, iv, 2.5 mg/kg, CL, Period 1, Cohort 2: IV 2.5 mg/kg colistin base activity q8h x 3 doses; plasma after final dose; mean (SD); SD
Where a SMILES comes first, the peptide text is derived from it. Bridges are numbered along the chain shown (N, C = ends). [ ]: non-standard residue; d: D form. The star is where a group is joined. Heptanoyl(6-Me) = CC(C)CCCCC(=O)*; X1 = CC[C@H](C)CCCCC(=O)*; Dab = NCC[C@H](N)C(=O)O
I'd appreciate it if you included the unit after the number.

# input molecule: CC(C)CCCCC(=O)N[C@@H](CCN)C(=O)N[C@H](C(=O)N[C@@H](CCN)C(=O)N[C@H]1CCNC(=O)[C@H]([C@@H](C)O)NC(=O)[C@H](CCN)NC(=O)[C@H](CCN)NC(=O)[C@H](CC(C)C)NC(=O)[C@@H](CC(C)C)NC(=O)[C@H](CCN)NC1=O)[C@@H](C)O [colistin B] ({Heptanoyl(6-Me)}-[Dab]T[Dab][Dab][Dab][dL]L[Dab][Dab]T; lactam 4-C) ; wanted: its clearance
59 mL/min

Now, please, on to the next molecule.
# input molecule: CC[C@H](C)CCCCC(=O)N[C@@H](CCN)C(=O)N[C@H](C(=O)N[C@@H](CCN)C(=O)N[C@H]1CCNC(=O)[C@H]([C@@H](C)O)NC(=O)[C@H](CCN)NC(=O)[C@H](CCN)NC(=O)[C@H](CC(C)C)NC(=O)[C@@H](CC(C)C)NC(=O)[C@H](CCN)NC1=O)[C@@H](C)O [colistin A] (X1-[Dab]T[Dab][Dab][Dab][dL]L[Dab][Dab]T; lactam 4-C) ; wanted: its clearance
74.5 mL/min
